Source listed as ChEMBL document CHEMBL1201862.

System: ACHN
Assay: NCI tumour cell line growth inhibition, 48 h
The source made the active and inactive calls. Rule as the data show it: active = GI50 up to about 1.1 µM and inactive = higher.
OBSERVED PROPERTY: GI50

Some solved entries appear below for comparison.
[
  {
    "MOLECULE": "O=C1CC2(CCC3=C(O2)c2ccccc2NC(=O)C3)C(=O)c2ccccc2N1 (stereo unspecified)",
    "GI50": "> 100 µM (inactive)"
  },
  {
    "MOLECULE": "COc1ccc2oc(-c3ccncc3)cc(=O)c2c1",
    "GI50": "> 100 µM (inactive)"
  },
  {
    "MOLECULE": "C=C1C(=O)OC2/C=C(\\C)C(O)CC(O)C(C)(O)CC(OC(=O)/C(C)=C/C)C12 (stereo unspecified)",
    "GI50": "39.2 µM (inactive)"
  },
  {
    "MOLECULE": "CC(=O)N(C)C=C1C(=O)N(C)C(=O)N(C)C1=O",
    "GI50": "> 100 µM (inactive)"
  },
  {
    "MOLECULE": "CC(=O)O[C@H]1CC[C@@]2(C)C(=CC[C@H]3C4=CC=C(C(C)=O)[C@@]4(C)CCC32)C1 (stereo partly specified)",
    "GI50": "34.1 µM (inactive)"
  }
]

I'm curious: which GI50 was measured for `CCCCOCc1cc(CN2CCN(C)CC2)c(O)c2ncccc12` tested on ACHN? 6.24 µM (inactive)

* * *

System: A549
Assay: NCI tumour cell line growth inhibition, 48 h
Active and inactive are the calls of the source. Rule as the data show it: active = GI50 up to about 1.1 µM and inactive = higher.
OBSERVED PROPERTY: GI50

Quick one: GI50 for CC(=O)OC1(C)C(=O)OC/C2=C/CN(C)CCC(OC(=O)C(O)(C(C)Cl)CC1C)C2=O.c1ccccc1 (stereo not given) ? > 100 µM (inactive)

Quick one: GI50 for `C[C@]12CCC(=O)C(OC(=O)c3ccc([N+](=O)[O-])cc3)=C1CCC2=O` ? > 100 µM (inactive)

Quick one: GI50 for `Cc1sc2nc3n(c(=O)c2c1C)N=CN(c1ccc(F)cc1)C3` ? 43.9 µM (inactive)

Quick one: GI50 for CC1=NN(c2nc(N)nc(C(C#N)C(=O)c3cc4c(cc3Cl)Sc3nccn3S4(=O)=O)n2)C(C)(C)C1 (stereo not given) ? 61.4 µM (inactive)

Quick one: GI50 for COC(=O)C1=C(O)c2cc(OC)c(OC)c(OC)c2[C@H](c2cc(OC)c(OC)c(OC)c2)C1C(=O)OC (stereo not given in full) ? 49.8 µM (inactive)

* * *

Test system: SF-268
Assay: NCI tumour cell line growth inhibition, 48 h
Active and inactive are the calls of the source. No stated cut-off is given here; in the data, active = GI50 up to about 1.1 µM and inactive = higher.
Choose the fitting class; nothing outside true (1) (active), false (0) (inactive) is accepted.

[
  {
    "MOLECULE": "O=C(Sc1c(-c2ccccc2)c(=O)n(-c2ccccc2)c(=S)n1-c1ccccc1)c1ccccc1",
    "SYSTEM": "SF-268",
    "CATEGORY LABEL": "false (0)"
  },
  {
    "MOLECULE": "COc1cc(-c2c3c([nH]c(=O)c2C#N)-c2cc([N+](=O)[O-])ccc2CCC3)cc(OC)c1OC",
    "SYSTEM": "SF-268",
    "CATEGORY LABEL": "false (0)"
  },
  {
    "MOLECULE": "CC(=O)NC(CC(C)C)C(=O)NC(CC(C)C)C(=O)NC(C=O)CCCNC(=N)N (stereo not drawn)",
    "SYSTEM": "SF-268",
    "CATEGORY LABEL": "false (0)"
  },
  {
    "MOLECULE": "O=C1/C(=C/c2ccccc2)NC(=S)N1CN1CCCCC1",
    "SYSTEM": "SF-268",
    "CATEGORY LABEL": "false (0)"
  },
  {
    "MOLECULE": "COc1ccc(C(=O)C(C(=O)CC(=O)Nc2cccc(C(F)(F)F)c2)c2ccc(OC)cc2)cc1 (stereo not drawn)",
    "SYSTEM": "SF-268",
    "CATEGORY LABEL": "false (0)"
  },
  {
    "MOLECULE": "C[C@H](c1ccccc1)N1C(=O)[C@@H](O)[C@H]1[C@H](CO)OCc1ccccc1",
    "SYSTEM": "SF-268",
    "CATEGORY LABEL": "false (0)"
  },
  {
    "MOLECULE": "O=C1N/C(=N/N=C\\c2ccccc2)N/C1=C/c1ccc(Cl)cc1",
    "SYSTEM": "SF-268",
    "CATEGORY LABEL": "false (0)"
  },
  {
    "MOLECULE": "CN(C)CCCNc1ccc2ncn3c4ccc(O)cc4c(=O)c1c23",
    "SYSTEM": "SF-268",
    "CATEGORY LABEL": "true (1)"
  }
]

Turning now to a further record.
What classification did `CN(C)c1nc2nonc2nc1Nc1ccccc1` end up with in this test? false (0)

* * *

Tested on: HOP-62
Assay: NCI tumour cell line growth inhibition, 48 h
Activity calls are given as the source filed them. No stated cut-off is given here; in the data, active = GI50 up to about 1.1 µM and inactive = higher.
OBSERVED PROPERTY: GI50

Some solved entries appear below for comparison.
[
  {
    "MOLECULE": "O=C(O)C1C(C(=O)Nc2ccc3c(c2)Cc2ccccc2-3)C2(Cl)C(Cl)=C(Cl)C1(Cl)C2(Cl)Cl (stereo not given)",
    "SYSTEM": "HOP-62",
    "RESULT": "31.2 µM (inactive)"
  },
  {
    "MOLECULE": "O=C(O)c1cccc(S(=O)(=O)NN2C(=O)CSC2c2c(O)ccc3ccccc23)c1 (stereo not given)",
    "SYSTEM": "HOP-62",
    "RESULT": "47 µM (inactive)"
  },
  {
    "MOLECULE": "O=Cc1ccc(-c2cccc([N+](=O)[O-])c2)s1",
    "SYSTEM": "HOP-62",
    "RESULT": "> 100 µM (inactive)"
  },
  {
    "MOLECULE": "CC(=O)Oc1c(C)cc(-c2cc(C)c(OC(C)=O)c(C)c2)cc1C",
    "SYSTEM": "HOP-62",
    "RESULT": "45.7 µM (inactive)"
  },
  {
    "MOLECULE": "CN1C(=O)C(=Cc2ccc(Br)cc2)C(=O)N(C)C1=O",
    "SYSTEM": "HOP-62",
    "RESULT": "> 100 µM (inactive)"
  },
  {
    "MOLECULE": "COc1ccc2oc(-c3ccncc3)cc(=O)c2c1",
    "SYSTEM": "HOP-62",
    "RESULT": "> 100 µM (inactive)"
  },
  {
    "MOLECULE": "CC1(c2nc3ccccc3[nH]2)CCC(C(=O)O)C(C)(C)O1 (stereo not given)",
    "SYSTEM": "HOP-62",
    "RESULT": "> 100 µM (inactive)"
  },
  {
    "MOLECULE": "CC(C)C1N(C)c2ccc(Cl)cc2[C@H]2c3ccccc3CCN12 (stereo not given in full)",
    "SYSTEM": "HOP-62",
    "RESULT": "> 100 µM (inactive)"
  },
  {
    "MOLECULE": "C[C@@H](N[C@H]1CCC[C@@H]1O)c1ccccc1.C[C@@H](N[C@H]1CCC[C@H]1O)c1ccccc1",
    "SYSTEM": "HOP-62",
    "RESULT": "51.9 µM (inactive)"
  }
]

We next turn to a different molecule, shown below.
I'm curious: which GI50 was measured for `Cc1cc2c(cc1Cl)S(=O)(=O)OC(c1ccc([N+](=O)[O-])cc1)=N2` tested on HOP-62? > 100 µM (inactive)

* * *

System: HOP-92
Test: NCI tumour cell line growth inhibition, 48 h
Active and inactive are the calls of the source. Rule as the data show it: active = GI50 up to about 1.1 µM and inactive = higher.
Choose the fitting class; nothing outside active, inactive is accepted.

Field: example entries. Status: answers known.
[
  {
    "COMPOUND": "Cc1ccc(NC(=O)c2cc(S(=O)(=O)N3CCNNC3=O)c(S)cc2Cl)cc1",
    "SYSTEM": "HOP-92",
    "CATEGORY LABEL": "inactive"
  },
  {
    "COMPOUND": "CN(C)C(=N)c1ccccc1",
    "SYSTEM": "HOP-92",
    "CATEGORY LABEL": "inactive"
  },
  {
    "COMPOUND": "O=C(NCCc1ccccc1)C1C(=O)C(=O)N(CCc2ccccc2)C1=O (centres undefined)",
    "SYSTEM": "HOP-92",
    "CATEGORY LABEL": "inactive"
  },
  {
    "COMPOUND": "Cc1ccc(C(=O)NC2C(=O)NC(C(C)C)C(=O)N3CCCC3C(=O)N(C)CC(=O)N(C)C(C(C)C)C(=O)OC2C)c2c1Oc1c(c(C(=O)NC3C(=O)NC(C(C)C)C(=O)N4CCCC4C(=O)N(C)CC(=O)N(C)C(C(C)C)C(=O)OC3C)c3nc(-c4ccccc4)c(=O)oc3c1C)N2 (centres undefined)",
    "SYSTEM": "HOP-92",
    "CATEGORY LABEL": "active"
  },
  {
    "COMPOUND": "CN(C)CCNc1ccc(NCCN(C)C)c2c1C(=O)c1ncsc1C2=O",
    "SYSTEM": "HOP-92",
    "CATEGORY LABEL": "inactive"
  },
  {
    "COMPOUND": "CC1=C(C(=O)Nc2ccccc2C)C(c2ccc(C3C(C(=O)Nc4ccccc4C)=C(C)NC(C)=C3C(=O)Nc3ccccc3C)cc2)C(C(=O)Nc2ccccc2C)=C(C)N1",
    "SYSTEM": "HOP-92",
    "CATEGORY LABEL": "inactive"
  },
  {
    "COMPOUND": "O=C(O)CN1CCSc2ccccc2CN(CC(=O)O)CCSc2ccccc2C1",
    "SYSTEM": "HOP-92",
    "CATEGORY LABEL": "inactive"
  },
  {
    "COMPOUND": "CCOC(NC(=O)CC)(C(F)(F)F)C(F)(F)F",
    "SYSTEM": "HOP-92",
    "CATEGORY LABEL": "inactive"
  },
  {
    "COMPOUND": "COC1/C=C/C(C)C(OC)CC(O)/C=C/C(C)C(C(C)C(OC)C(C)CCC(=O)C(C)C(C/C=C/N(C)C=O)OC)OC(=O)/C=C/C=C(\\C)CC(OC)C(OC)C2=CC(=O)O[C@@H](C(C)C(OC)C1)[C@H]2O (some centres undefined)",
    "SYSTEM": "HOP-92",
    "CATEGORY LABEL": "active"
  },
  {
    "COMPOUND": "Nc1ncnc2c1ncn2C1OC(C(=O)OCCO)C(O)C1O (centres undefined)",
    "SYSTEM": "HOP-92",
    "CATEGORY LABEL": "inactive"
  }
]

Turning now to a further record.
What classification did `C/C(=C\CO)CC[C@@H]1[C@@]2(C)CCCC(C)(C)[C@@H]2CC[C@@]1(C)O` end up with in this test? inactive
